B1: glmS ribozyme (parent)
chain: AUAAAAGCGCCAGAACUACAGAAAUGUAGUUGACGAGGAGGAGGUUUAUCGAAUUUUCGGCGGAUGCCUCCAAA

variants of: B1; assay: self-cleavage kobs at 640 uM GlcN6P; higher = faster cleavage; RNA array; settings: with glucosamine-6-phosphate
Fewer inactive variants are shown than the library holds.
Assign class by self-cleavage kobs at 640 uM GlcN6P: not lower than 0.0002 s⁻¹ means Yes; lower than 0.0002 s⁻¹ means No.

Worked set:
G38A U54G C71U
No
A42C A52G U55A U57G C68U C70U
No
A39G G60U
No
A12G G37C
No
C50G C61U C67U
Yes
G7U G62C
No
A14G C16U
Yes
A14C A36C G51U C61A G63U C67U
No

Q) Item A72C with self-cleavage kobs at 640 uM GlcN6P of 0.0002 s⁻¹ or above?
A) Yes

Q) Item A15U U45A G66U with self-cleavage kobs at 640 uM GlcN6P of 0.0002 s⁻¹ or above?
A) No

Q) Item A12C U69G with self-cleavage kobs at 640 uM GlcN6P of 0.0002 s⁻¹ or above?
A) No

Reference for the values: the supplement of paper PMC7125110
